Source of measurements: paper PMC10668032

- experimental-system: SIX1-Q177R homeodomain (human, UniProt Q15475 108-198, Q177R)
- Sequence: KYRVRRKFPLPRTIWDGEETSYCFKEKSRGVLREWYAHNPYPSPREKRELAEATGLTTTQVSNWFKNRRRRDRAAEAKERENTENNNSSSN
- run-description: universal protein binding microarray; Universal all-10-mer PBM (8x60K, AMADID 030236), 300 nM GST-tagged protein, Alexa Fluor 488 anti-GST; buffer, salt, pH and temperature not stated (as in Berger); high values mean tight binding
- condition-parameters: protein: ivt; tags: N-terminal GST; dsDNA, one strand shown
Whole data set: some 33,000 sequences, median “e-score” near -0.05, cut for the highest 2% near 0.38. The list comes from a sample in which the highest values are over-represented; it also holds close analogues and randomly drawn sequences.

construct-sequence: ACCCCAAA
unit-string: E-score
binding signal: 0.205
//
construct-sequence: AAGTGTAA
unit-string: E-score
binding signal: 0.4
//
construct-sequence: ACCACTAC
unit-string: E-score
binding signal: 0.178
//
construct-sequence: CGCGTGTC
unit-string: E-score
binding signal: 0.414
//
construct-sequence: GACACACC
unit-string: E-score
binding signal: 0.422
//
construct-sequence: AGTACACT
unit-string: E-score
binding signal: 0.406
//
construct-sequence: AACACACA
unit-string: E-score
binding signal: 0.262
//
construct-sequence: CGCGTATC
unit-string: E-score
binding signal: 0.155
//
construct-sequence: GACACAGC
unit-string: E-score
binding signal: 0.17
//
construct-sequence: CCGTACAC
unit-string: E-score
binding signal: 0.418
//
construct-sequence: ACACCAAT
unit-string: E-score
binding signal: 0.473
//
construct-sequence: CACCAAAA
unit-string: E-score
binding signal: 0.217
//
construct-sequence: CCGCACAC
unit-string: E-score
binding signal: 0.303
//
construct-sequence: ACGTGTGG
unit-string: E-score
binding signal: 0.218
//
construct-sequence: GAGGTACA
unit-string: E-score
binding signal: 0.252
//
construct-sequence: ACACCAAG
unit-string: E-score
binding signal: 0.455
//
construct-sequence: AAACACGT
unit-string: E-score
binding signal: 0.307
//
construct-sequence: CAGTGTGA
unit-string: E-score
binding signal: 0.306
//
construct-sequence: CGTGTGTA
unit-string: E-score
binding signal: 0.296
//
construct-sequence: CGACACCC
unit-string: E-score
binding signal: 0.488
//
construct-sequence: ACGTGTCG
unit-string: E-score
binding signal: 0.383
//
construct-sequence: CCCCAAGG
unit-string: E-score
binding signal: 0.218
//
construct-sequence: AGCGTGTG
unit-string: E-score
binding signal: 0.281
//
construct-sequence: CACACACA
unit-string: E-score
binding signal: 0.184
//
construct-sequence: CCGACTCG
unit-string: E-score
binding signal: 0.159
//
construct-sequence: ACGCCCAA
unit-string: E-score
binding signal: 0.176
//
construct-sequence: GTGTTTGA
unit-string: E-score
binding signal: 0.35
//
construct-sequence: ACGTACAC
unit-string: E-score
binding signal: 0.436
//
construct-sequence: CACGCGTG
unit-string: E-score
binding signal: 0.317
//
construct-sequence: CACTAAAC
unit-string: E-score
binding signal: 0.195
//
construct-sequence: GGGGGATA
unit-string: E-score
binding signal: 0.2
//
construct-sequence: CCTACGCA
unit-string: E-score
binding signal: 0.17
//
construct-sequence: CACACACC
unit-string: E-score
binding signal: 0.389
//
construct-sequence: CCGTGACA
unit-string: E-score
binding signal: 0.307
//
construct-sequence: ATACCAAC
unit-string: E-score
binding signal: 0.163
//
construct-sequence: CCGTACCC
unit-string: E-score
binding signal: 0.158
//
construct-sequence: TCGTTACA
unit-string: E-score
binding signal: 0.278
//
construct-sequence: AGTACACC
unit-string: E-score
binding signal: 0.481
//
construct-sequence: CCCGGTCG
unit-string: E-score
binding signal: 0.212
//
construct-sequence: GCACCAAC
unit-string: E-score
binding signal: 0.261
//
construct-sequence: GAACACAC
unit-string: E-score
binding signal: 0.319
//
construct-sequence: ACGTGGTG
unit-string: E-score
binding signal: 0.359
//
construct-sequence: GCGTATCC
unit-string: E-score
binding signal: 0.176
//
construct-sequence: ATGTTACA
unit-string: E-score
binding signal: 0.177
//
construct-sequence: ACGTAATC
unit-string: E-score
binding signal: 0.186
//
construct-sequence: AGTACCCC
unit-string: E-score
binding signal: 0.287
//
construct-sequence: GTGTTAAC
unit-string: E-score
binding signal: 0.415
//
construct-sequence: CCGTGTGA
unit-string: E-score
binding signal: 0.299
//
construct-sequence: ACTAGGAG
unit-string: E-score
binding signal: 0.219
//
construct-sequence: GGGAGTAA
unit-string: E-score
binding signal: 0.225
//
construct-sequence: TGATACCA
unit-string: E-score
binding signal: 0.325
//
construct-sequence: TAACACGA
unit-string: E-score
binding signal: 0.399
//
construct-sequence: GTGTGAAC
unit-string: E-score
binding signal: 0.362
//
construct-sequence: AGCGGGTA
unit-string: E-score
binding signal: 0.158
//
construct-sequence: AGATGACA
unit-string: E-score
binding signal: 0.165
//
construct-sequence: ACACAAAG
unit-string: E-score
binding signal: 0.236
//
construct-sequence: CACTGTGA
unit-string: E-score
binding signal: 0.177
//
construct-sequence: AATTGGTG
unit-string: E-score
binding signal: 0.221
//
construct-sequence: GTGTTATA
unit-string: E-score
binding signal: 0.432
//
construct-sequence: AACACGTA
unit-string: E-score
binding signal: 0.343
//
construct-sequence: CAAGGACA
unit-string: E-score
binding signal: 0.194
//
construct-sequence: AAACACTT
unit-string: E-score
binding signal: 0.252
//
construct-sequence: TATGGACA
unit-string: E-score
binding signal: 0.167
//
construct-sequence: GAGTTAAC
unit-string: E-score
binding signal: 0.171
//
construct-sequence: GCGCGACA
unit-string: E-score
binding signal: 0.155
//
construct-sequence: AGATGGAG
unit-string: E-score
binding signal: 0.181
//
construct-sequence: CGGCACCG
unit-string: E-score
binding signal: 0.239
//
construct-sequence: GTGTTACA
unit-string: E-score
binding signal: 0.442
//
construct-sequence: AGAGCGTG
unit-string: E-score
binding signal: 0.189
//
construct-sequence: GACACACA
unit-string: E-score
binding signal: 0.334
//
construct-sequence: GGACCCCC
unit-string: E-score
binding signal: 0.26
//
construct-sequence: CACCGGAG
unit-string: E-score
binding signal: 0.328
//
construct-sequence: CGCGTGTA
unit-string: E-score
binding signal: 0.43
//
construct-sequence: ACGTGTCC
unit-string: E-score
binding signal: 0.347
//
construct-sequence: GCGTGACA
unit-string: E-score
binding signal: 0.254
//
construct-sequence: AACACACC
unit-string: E-score
binding signal: 0.395
//
construct-sequence: GCGTGTCC
unit-string: E-score
binding signal: 0.412
//
construct-sequence: ACCCCAAT
unit-string: E-score
binding signal: 0.266
//
construct-sequence: ACGTACCC
unit-string: E-score
binding signal: 0.202
//
construct-sequence: GTGTTAGA
unit-string: E-score
binding signal: 0.41
//
construct-sequence: GCCCACCC
unit-string: E-score
binding signal: 0.229
//
construct-sequence: CCCCCTGA
unit-string: E-score
binding signal: 0.277
//
construct-sequence: CACACACG
unit-string: E-score
binding signal: 0.248
//
construct-sequence: CACGTTCA
unit-string: E-score
binding signal: 0.158
//
construct-sequence: CACACGTA
unit-string: E-score
binding signal: 0.262

====

- experimental-system: SIX1-Q177R homeodomain (human, UniProt Q15475 108-198, Q177R)
- Sequence: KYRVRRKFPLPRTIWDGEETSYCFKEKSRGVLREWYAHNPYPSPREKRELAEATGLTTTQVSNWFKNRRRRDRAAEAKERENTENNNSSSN
- run-description: universal protein binding microarray; Universal all-10-mer PBM (8x60K, AMADID 030236), 300 nM GST-tagged protein, Alexa Fluor 488 anti-GST; buffer, salt, pH and temperature not stated (as in Berger); high values mean tight binding
- condition-parameters: protein: ivt; tags: N-terminal GST; dsDNA, one strand shown
Whole data set: some 33,000 sequences, median “e-score” near -0.05, cut for the highest 2% near 0.38. Shown is part of a subset that was picked to be rich in the highest values.
Catalogue of binding signal values
measurement-kind: binding signal (E-score)

construct-sequence: ACCAACGC
unit-string: E-score
recorded-number: 0.246

construct-sequence: AGTGTGTA
unit-string: E-score
recorded-number: 0.285

construct-sequence: AAGACCCC
unit-string: E-score
recorded-number: 0.172

construct-sequence: AGTGTGAA
unit-string: E-score
recorded-number: 0.276

construct-sequence: GAGAACAC
unit-string: E-score
recorded-number: 0.381

construct-sequence: GGTGTGAC
unit-string: E-score
recorded-number: 0.435

construct-sequence: TGTGTAAA
unit-string: E-score
recorded-number: 0.235

construct-sequence: CGGCACCA
unit-string: E-score
recorded-number: 0.181

construct-sequence: CACTGGAA
unit-string: E-score
recorded-number: 0.152

construct-sequence: GAGAATAC
unit-string: E-score
recorded-number: 0.194

construct-sequence: ACAGGGTG
unit-string: E-score
recorded-number: 0.222

construct-sequence: TGTGTGAA
unit-string: E-score
recorded-number: 0.187

construct-sequence: CCCAAACA
unit-string: E-score
recorded-number: 0.208

construct-sequence: CTGGGGTA
unit-string: E-score
recorded-number: 0.194

construct-sequence: AGTGACCC
unit-string: E-score
recorded-number: 0.234

construct-sequence: GGTGACAC
unit-string: E-score
recorded-number: 0.472

construct-sequence: ACGCCCAG
unit-string: E-score
recorded-number: 0.192

construct-sequence: CACGCACA
unit-string: E-score
recorded-number: 0.262

construct-sequence: CACCTCAC
unit-string: E-score
recorded-number: 0.354
